# credit: paper PMC9482650

molecular target: NHERF2_2, Q15599; experiment: holdup assay; parameters: key: below the threshold = too weak to quantify, mostly under pKd 3.1 to 4; details: plain residues with an end cap or a label only (N-terminal biotin on a linker: ado-ado)
Sequence (Q15599 142-238): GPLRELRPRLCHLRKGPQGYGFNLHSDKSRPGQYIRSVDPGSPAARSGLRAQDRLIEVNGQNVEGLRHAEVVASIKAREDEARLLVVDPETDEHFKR
READOUT LABEL: pKd

Consider the worked cases shown below.
[[record]]
binder = "PGKKPEDSRV [SLCO2B1, O94956]"
test_result = 3.47

[[record]]
binder = "PAALPESTHM [SLC9A3, P48764]"
test_result = 4.94

[[record]]
binder = "QKNKDREYYV [NRXN3, Q9HDB5]"
test_result = "below the threshold"

[[record]]
binder = "KLQNPNQSVV [TYRP1, P17643]"
test_result = "below the threshold"


-- ask Using the record for QKASRNESTF [POLR1D, P0DPB6] , report its pKd.
-- reply 3.7

-- ask Entry ATKDKKITTV [EXOC4, Q96A65] has what pKd?
-- reply 3.6

-- ask Fill in the blank: the reported pKd of HYPASPDSWV [CTNND2, Q9UQB3] is ____.
-- reply 3.84

-- ask Sample RDYTQSSSSL [GRM5, P41594] — what was its pKd?
-- reply 4.52
